Measured values drawn from the NIST ThermoML archive (doi:10.1021/je800356x) for this set.

Give molar heat capacity at constant pressure for every item shown.
# Experiment: molar heat capacity at constant pressure
# Assay Context: 298.15 K; 101.33 kPa; Liquid; Small sample (50 mg) DSC
Kindly provide the numeric value in J/K/mol only, without the unit symbol.

Query string: For the molecule shown here, OCCCCCO [1,5-pentanediol] , give the reported molar heat capacity at constant pressure.
Result string: 232.49

Query string: Give its molar heat capacity at constant pressure value. Item: OCCCO [propan-1,3-diol]
Result string: 175.78

Query string: Recorded molar heat capacity at constant pressure for OCCCCO [1,4-butanediol] , please?
Result string: 203.27

Query string: Name the recorded molar heat capacity at constant pressure for OCCO [1,2-ethanediol] .
Result string: 149.69
